test: inhibitors of GR-EGFP nuclear translocation, primary screen, dynein cargo transport inhibitor project, imaging, high-content, 3617.4 mouse cells (AID 1381); conditions: measured here: nuclear GR-EGFP intensity, at 20 µM, stronger effect = lower value, stimulated with dexamethasone, 1 µM
Out of some 220,000 compounds screened, about 1,000 (0.45%) were called active. The list comes from a sample in which actives are over-represented; it also holds close analogues and randomly drawn compounds.
Measured z-score by item
Test Readout: z-score

1) O=C(NNC(=O)c1ccccc1[N+](=O)[O-])Nc1ccccc1C(F)(F)F | -0.966
2) Cc1ccc(Cl)cc1N1CCN(C(=O)c2cccc3c(=O)c(C)c(-c4ccccc4)oc23)CC1 | -0.287
3) CCN(CC)Cc1csc2ccc(Br)cc12 | 0.249
4) CCCN(c1ccc(C)cc1)c1nc(=O)c2cccnc2s1 | 0.0592
5) CCN(CC)c1ccc2cc(C(=O)O)c(=O)oc2c1 | 0.0952
6) C[C@@H]1C[C@@H]2O[C@H]2/C=C\C=C\C(=O)Cc2c(Cl)c(O)cc(O)c2C(=O)O1 | -1.89
7) CCOC(=O)C1=C(C)OC(N)=C(C#N)C1c1cncc(-c2ccc(F)cc2)c1 (stereo not given) | -1.42
8) Cc1cccc(Oc2c([N+](=O)[O-])c(=O)n(C)c3ccccc23)c1 | -2.29
9) COc1ccc2c(c1)cc1n2CCN=C1NN | 0.848
10) Cc1ccnc(N2CCN(C(=O)CSc3nc4ccccc4nc3N3CCCCC3)CC2)c1 | -0.257
11) CCOc1cc(N2CCOCC2)c(OCC)cc1NC(=O)C1=NN(c2cccc(C)c2)C(=O)CC1 | -0.0907
12) CCCn1c(SCC(=O)Nc2ccc(C)c(S(=O)(=O)N3CCOCC3)c2)n[nH]c1=O | 0.257
13) COc1ccc(C(C#N)N2N=C(C)CC2(C)C)cc1 (stereo not given) | -0.808
14) Cc1cccc(OP(=O)(Nc2c(C)n(C)n(-c3ccccc3)c2=O)Oc2cccc(C)c2)c1 | 1.25
15) CCOc1ccc(Br)cc1S(=O)(=O)Nc1cccc(S(=O)(=O)N(CC)CC)c1 | -0.464
16) Nc1ccccc1SCc1cc([N+](=O)[O-])cc2c1OCOC2 | 0.0233
17) CCOC(=O)C1=C(CC)OC(N)=C(C#N)C1c1ccc(F)cc1F (stereo not given) | -1.28
18) C=CCOC(=O)C1=C(C)OC(N)=C(C#N)C1c1ccc(F)cc1 (stereo not given) | -0.354
19) O=C(CCl)Nc1ccc(Sc2ccc(NC(=O)CCl)cc2)cc1 | -1.01
20) Cn1c2ccccc2c(=O)c2c(O)cccc21 | -0.208
